# System: MDA-MB-231
# procedure summary: NCI tumour cell line growth inhibition, 48 h
Calls of active or inactive are those of the source. No stated cut-off is given here; in the data, active = GI50 up to about 1.1 µM and inactive = higher.
Respond using exactly one of the listed classes: active, inactive

input: State the result this test recorded for Cc1cc(-n2c(/C=C/c3ccc(Cl)cc3)nc3cc(Cl)ccc3c2=O)on1 .
output: inactive

input: State the result this test recorded for O=C(O)c1nn(-c2ccccc2)nc1-c1nn(-c2ccccc2)nc1C(=O)O .
output: inactive

input: State the result this test recorded for COC(=O)/C1=C/c2c([nH]c3ccccc23)/C(C(=O)OC)=C\c2c1[nH]c1ccccc21 [CAULERPIN] .
output: inactive

input: State the result this test recorded for CC(=O)OC[C@]1(C(=O)C(O)c2ccoc2)[C@H](C)CC[C@@]23COC(=O)C2=CCC[C@@H]31 (stereo not given in full) .
output: inactive

input: State the result this test recorded for CCN(CC)C(=S)N/N=C(\C)c1cccc(C)n1 .
output: active

input: State the result this test recorded for COc1cc(/C=N/n2c(-c3ccccc3)n[nH]c2=O)cc(OC)c1OC .
output: inactive

input: State the result this test recorded for O=c1cccc2n1C[C@H]1CNC[C@H]2C1 .
output: inactive

input: State the result this test recorded for Cc1c(Cl)nc(Cl)nc1Cl .
output: inactive

input: State the result this test recorded for CCCCCCCCCCCCCCCCOCC(O)CO (stereo not given) .
output: inactive

input: State the result this test recorded for CCCCC1Cc2cc(O)ccc2-c2nc3cc(O)ccc3n21.CCCCC1Cc2cc(O)ccc2-c2nc3ccc(O)cc3n21 (stereo not given) .
output: inactive
